Test system: Musca domestica
Test: Insecticidal test, Musca domestica (houseflies - adults), contact
Assay type: in vivo
Conditions: 24 h, 500 ppm, cotton wool/sugar, 1 day, read-out: grading of mortality, MD
Recorded measurements of mortality at 500 ppm, one per entry

Worked examples, 3 molecules total:
molecule	val
CCOc1c(F)cc(C(O)(COCc2cccc(Oc3ccccc3)c2)C(F)(F)F)cc1F (racemic)	< 50%
CCOc1ccc(C(Cl)(COCc2cccc(Oc3ccccc3)n2)C(F)(F)F)cc1 (centres unmarked)	80 to 100%
OC(COCc1ccc(F)c(Oc2ccccc2)c1)(c1ccc2c(c1)CCC2)C(F)(F)F (centres unmarked)	< 50%

Task item: Report mortality at 500 ppm for CCOc1ccc(C(Cl)(COCc2cccc(-c3ccccc3)c2C)C(F)(F)F)cc1 (centres unmarked) please.
Reply: < 50%

Task item: Lookup Fc1ccc(COCC(F)(c2ccc(Br)cc2)C(F)(F)F)cc1Oc1ccccc1 (centres unmarked)
Reply: 80 to 100%

Task item: Lookup CCOc1ccc(C(O)(COCc2ccc(F)c(Oc3ccc(Br)cc3)c2)C(F)(F)F)cc1 (centres unmarked)
Reply: 50 to 79%

Task item: Lookup CCOc1ccc(C(COCc2cccc(Oc3ccccc3)c2)C(F)(F)F)cc1 (centres unmarked)
Reply: 80 to 100%

Task item: Lookup CCOc1ccc([C@H](CO[C@@H](C#N)c2cccc(Oc3ccccc3)c2)C(F)(F)F)cc1 (racemic)
Reply: 80 to 100%
